method.notes: NCI Yeast Anticancer Drug Screen. Data for the mec2-1 strain (AID 157)
recorded.conditions: S. cerevisiae mec2-1 strain, at 50.0 µM (retest, dose inferred, filed as 5.0), active compounds read high
Compounds without any hit were thinned out: in the full panel of roughly 79,000, 15% have a hit.
So basically: growth inhibition at 60% or higher? That is Criterion met. Lower than 60%? That is Criterion not met.

>>> answer_label("CCC(c1ccc(O)cc1)C(CC)c1ccc(O)c(CN(C)C)c1 (configuration not stated)")
"Criterion met"
>>> answer_label("C/C(C=C(C#N)C#N)=C\\c1ccc([N+](=O)[O-])cc1")
"Criterion met"
>>> answer_label("COc1ccc2c(c1)C(Br)CCC(Br)C2=O (configuration not stated)")
"Criterion not met"
>>> answer_label("O=C1NCCCNCCCNCCCNC(=O)c2cccc1n2")
"Criterion not met"
>>> answer_label("O=c1c2ccccc2c2ccccc2n1O")
"Criterion met"
>>> answer_label("O=C(CNc1ccc(Cl)cc1)Nn1c(-c2ccccc2)nc2ccccc2c1=O")
"Criterion not met"
>>> answer_label("COc1ccnc(-c2cc(OC)cc(/C(N)=N/O)n2)c1")
"Criterion met"
>>> answer_label("CCCCCC(CCCCC)OC(=O)CCN(CCCCC)CCCCC")
"Criterion met"
>>> answer_label("Nc1ccc(C(=O)/C=C/c2ccccn2)cc1")
"Criterion met"
>>> answer_label("Cc1c(N)ccc(O)c1C")
"Criterion not met"
>>> answer_label("O=P(Nc1ccccc1)(OCc1ccccc1)OCc1ccccc1")
"Criterion met"
>>> answer_label("O=P(O)(O)Oc1c(O)c2ccccc2c2ccccc12")
"Criterion met"

* * *

method.notes: NCI Yeast Anticancer Drug Screen. Data for the bub3 strain (AID 167)
recorded.conditions: S. cerevisiae bub3 mutant strain, at 50.0 µM
Compounds without any hit were thinned out: in the full panel of roughly 79,000, 15% have a hit. Active and inactive are the calls of the source. No stated cut-off is given here; in the data, active means growth inhibition above about 70%; inactive means the rest.
Labels: active, inactive

>>> answer_label("CCOC(=O)C1c2[nH]c3ccccc3c2CCN1C(=O)c1ccc(OC)o1 (stereo not given)")
"active"
>>> answer_label("CCN(CC)CC(O)c1ccc(/C=C/c2ccc(Cl)cc2)cc1 (stereo not given)")
"active"
>>> answer_label("COC(=O)Cc1nc2ccccc2s1")
"active"
>>> answer_label("CCOC(=O)C(N=Nc1ccc(Br)c(C)c1)C(C)=O (stereo not given)")
"active"
>>> answer_label("CN1CCN=C1c1ccc(NC(=O)Nc2ccc(NC(=O)Nc3ccc(C4=NCCN4C)cc3)cc2)cc1")
"active"
>>> answer_label("CC(=O)C1(O)C(Br)CC2C3CC=C4CC(O)CCC4(C)C3CCC21C (stereo not given)")
"active"
>>> answer_label("O=C(O)/C=C/C(=O)Nc1cccc2c1C(=O)c1ccccc1-2")
"active"
>>> answer_label("CCOC(=O)OCCSCCOC(=O)OCC")
"inactive"
>>> answer_label("COc1cccc(-c2cc(=O)c3c(C)ccnc3[nH]2)c1")
"inactive"
>>> answer_label("O=[N+]([O-])c1ccc2c(c1)N([O-])C1(CCCCC1)[N+]2=O")
"active"
>>> answer_label("O=C1c2ccccc2CCC1C(O)(C(F)(F)F)C(F)(F)F (stereo not given)")
"inactive"
>>> answer_label("CSC(=S)SC(SC)S(C)(=O)=O (stereo not given)")
"active"
>>> answer_label("C=CCN1CCC(OC(=O)C(O)(/C=C\\CC)C2CCCC2)CC1 (stereo not given)")
"inactive"
>>> answer_label("O=C(NCc1ccccc1)N1CCN(c2ccccc2)C1=O")
"inactive"
>>> answer_label("O=C(Oc1cc([N+](=O)[O-])ccc1Cl)Oc1cc([N+](=O)[O-])ccc1Cl")
"active"
>>> answer_label("Clc1ccc(Cc2nc3ccccc3s2)c(Cl)c1")
"active"
>>> answer_label("O=[N+]([O-])/C(Br)=C\\c1ccc([N+](=O)[O-])cc1")
"active"
>>> answer_label("O=[N+]([O-])c1cc(Cl)ccc1S(=O)(=O)c1ccccc1")
"active"
>>> answer_label("CC(C)(c1cc(Br)c(O)c(Br)c1)c1cc(Br)c(O)c(Br)c1")
"active"
>>> answer_label("CN(NC(=O)/C(=C/c1ccc2c(c1)OCO2)NC(=O)c1ccccc1)c1ccnc2cc(Cl)ccc12")
"active"
>>> answer_label("O=Cc1ccc2cc(Cl)ccc2n1")
"inactive"
>>> answer_label("COc1cc(OC)c(C(=O)[O][Sn]([c]2ccccc2)([c]2ccccc2)[c]2ccccc2)cc1OC")
"active"
>>> answer_label("CCCCN(CCCC)C(=O)c1ccc(Cl)cc1Cl")
"active"
>>> answer_label("CCN(CC)c1ccc(N=Nc2ccc(-c3nc4ccc[n+](C)c4s3)cc2)cc1")
"active"
>>> answer_label("O=[N+]([O-])c1cc(Br)cc2c1nc(NCCCO)c1ccccc12")
"active"
>>> answer_label("O=C(CN1CCCCC1)c1ccc(/C=C/c2ccc(Cl)cc2)cc1")
"active"
>>> answer_label("CCCCCCCCCCOC(=O)c1ccccn1")
"inactive"
>>> answer_label("COc1ccc(C2C3=C(CC(C)(C)CC3=O)Oc3cc4c(cc32)OCO4)c(OC)c1 (stereo not given)")
"inactive"
>>> answer_label("CN(C)CC1CCCCCCCCCCCCC(CN(C)C)C1=O (stereo not given)")
"active"
>>> answer_label("Nc1ccc2c(c1)NCCN2")
"inactive"
>>> answer_label("CCN(CC)CCOc1ccc(-c2cc(-c3ccccc3)nc(N)n2)cc1")
"active"
>>> answer_label("CSC(=S)N/N=C\\C(C)=N/N=C(N)N")
"active"
>>> answer_label("COc1ccc(C2C3CCCC(C3=O)C(c3ccc(OC)cc3)N2N=O)cc1 (stereo not given)")
"active"
>>> answer_label("COc1cc(CC#N)c(NC(C)=O)cc1OC")
"inactive"
>>> answer_label("COc1ccc(C2CC(c3sc(Nc4ccc(C)cc4)nc3C)=NN2)cc1 (stereo not given)")
"inactive"
>>> answer_label("C=COCCN1CCN(CCCN2c3ccccc3Sc3ccc(C(F)(F)F)cc32)CC1")
"active"
>>> answer_label("CCCCOC(=O)C(=O)/C(=C/N1C(=O)/C(=C/C(C)=C/c2ccccc2)SC1=S)C(=O)C=C(C)C")
"inactive"
>>> answer_label("CCOC(=O)c1c(N2CCCC2)nsc1Nc1ccc(F)cc1")
"active"
>>> answer_label("O=C1C=CC(=O)N1c1ccc2c(c1)Cc1cc(Cl)ccc1-2")
"active"
>>> answer_label("CCC[CH2][Sn]([CH2]CCC)([O]C(=O)C(OC)c1ccccc1)[O]C(=O)C(OC)c1ccccc1 (stereo not given)")
"active"
